These entries and their values trace back to patent US9233989B2.

# Tested on: MRSA DB 00026
Endpoint Label: MIC

[
  {
    "Compound": "CC(=O)NCC1CN(c2ccc(N3CC[Si](C)(C)CC3)c(F)c2)C(=O)O1 (stereo not shown)",
    "Endpoint Label": "MIC",
    "Test Value": "> 16 µg/mL"
  },
  {
    "Compound": "CC(C)(C)OC(=O)NC[C@H]1CN(c2cc(F)c(N3CC[Si](C)(C)CC3)c(F)c2)C(=O)O1",
    "Endpoint Label": "MIC",
    "Test Value": "> 16 µg/mL"
  },
  {
    "Compound": "C[Si]1(C)CCN(c2ccc(N3C[C@H](CN)OC3=O)cc2F)CC1",
    "Endpoint Label": "MIC",
    "Test Value": "> 32 µg/mL"
  },
  {
    "Compound": "COC(=S)NC[C@H]1CN(c2ccc(N3CC[Si](C)(C)CC3)c(F)c2)C(=O)O1",
    "Endpoint Label": "MIC",
    "Test Value": "4 µg/mL"
  },
  {
    "Compound": "C[Si]1(c2ccccc2)CCN(c2c(F)cc(N3C[C@H](CN)OC3=O)cc2F)CC1",
    "Endpoint Label": "MIC",
    "Test Value": "> 32 µg/mL"
  },
  {
    "Compound": "CC(=O)NC[C@H]1CN(c2cc(F)c(N3CC[Si](C)(C)CC3)c(F)c2)C(=O)O1",
    "Endpoint Label": "MIC",
    "Test Value": "8 µg/mL"
  },
  {
    "Compound": "CC(=O)NC[C@H]1CN(c2ccc(N3CCOCC3)c(F)c2)C(=O)O1 [Linezolid, reference compound]",
    "Endpoint Label": "MIC",
    "Test Value": "2 µg/mL"
  },
  {
    "Compound": "C[Si]1(C)CCN(c2ccc(N3C[C@H](CO)OC3=O)cc2F)CC1",
    "Endpoint Label": "MIC",
    "Test Value": "> 32 µg/mL"
  },
  {
    "Compound": "C[Si]1(C)CCN(c2c(F)cc(N3C[C@H](CO)OC3=O)cc2F)CC1",
    "Endpoint Label": "MIC",
    "Test Value": "> 32 µg/mL"
  },
  {
    "Compound": "C[Si]1(C)CCN(c2c(F)cc(N3C[C@H](Cn4ccnn4)OC3=O)cc2F)CC1",
    "Endpoint Label": "MIC",
    "Test Value": "> 32 µg/mL"
  }
]

---

# System: MRSA 0-2657
# Measurement Notes: MIC by microbroth dilution method
# Assay type: cell-based, S. aureus
# MIC values compiled below
Endpoint Label: MIC

[
  {
    "Query Smiles": "C[Si]1(c2ccccc2)CCN(c2c(F)cc(N3C[C@H](CN)OC3=O)cc2F)CC1",
    "Endpoint Label": "MIC",
    "Test Value": "> 32 µg/mL"
  },
  {
    "Query Smiles": "C[Si]1(C)CCN(c2c(F)cc(N3C[C@H](CO)OC3=O)cc2F)CC1",
    "Endpoint Label": "MIC",
    "Test Value": "> 32 µg/mL"
  },
  {
    "Query Smiles": "CC(C)(C)OC(=O)NC[C@H]1CN(c2cc(F)c(N3CC[Si](C)(C)CC3)c(F)c2)C(=O)O1",
    "Endpoint Label": "MIC",
    "Test Value": "> 16 µg/mL"
  },
  {
    "Query Smiles": "C[Si]1(C)CCN(c2c(F)cc(N3C[C@H](Cn4ccnn4)OC3=O)cc2F)CC1",
    "Endpoint Label": "MIC",
    "Test Value": "> 32 µg/mL"
  },
  {
    "Query Smiles": "C[Si]1(C)CCN(c2ccc(N3C[C@H](CN)OC3=O)cc2F)CC1",
    "Endpoint Label": "MIC",
    "Test Value": "> 32 µg/mL"
  },
  {
    "Query Smiles": "C[Si]1(c2ccccc2)CCN(c2c(F)cc(N3C[C@H](CO)OC3=O)cc2F)CC1",
    "Endpoint Label": "MIC",
    "Test Value": "8(ppt)"
  }
]
